Ref: patent US4518588A

assay: Acute toxicity; settings: mouse, in vivo, po; per os; observation time 24 hours; dose as phendiline active ingredient; 5% Tween 80

compound | LD50 at 24 h
CC(NCCC(c1ccccc1)c1ccccc1)c1ccccc1.Cl (stereo not shown) [phendiline hydrochloride] | 522 mg/kg

###

test: Acute toxicity; settings: mouse, in vivo, ip; intraperitoneal; observation time 1 hour; dose as phendiline active ingredient; 5% Tween 80
property: LD50 at 1 h (mg/kg)

compound | unitsOfMeasure | observedResult
CC(NCCC(c1ccccc1)c1ccccc1)c1ccccc1.Cl (stereo not shown) [phendiline hydrochloride] | mg/kg | 81.1
